Biological target: BRM (Homo sapiens)
Test: ATPase catalytic activity assay of BRM (ADP-Glo)
Type: biochemical
Details: 30 nM BRM, 400 μM ATP
READOUT TYPE: BRM Max % Inhibition

Some entries whose results are on file:
{"COMPOUND": "C[C@H](NC(=O)c1ccc2c(c1)C(C)(CO)CC2)C(=O)Nc1nc(-c2cccc(N3CCC3)c2)cs1 (stereo in doubt)", "BRM Max % Inhibition": ">95%"}
{"COMPOUND": "C[C@@H]1CN(c2cccc(-c3csc(NC(=O)CNC(=O)c4ccc5c(c4)[C@](C)(O)COC5)n3)c2)C[C@H](C)O1", "BRM Max % Inhibition": ">95%"}
{"COMPOUND": "C[C@@H]1CN(c2cccc(-c3csc(NC(=O)CNC(=O)c4cccc(C5(C(F)F)COC5)c4)n3)c2)C[C@H](C)O1", "BRM Max % Inhibition": ">95%"}
{"COMPOUND": "CC1(C#N)CCOc2ccc(C(=O)NCC(=O)Nc3nc(-c4cccc(C5(F)COC5)c4)cs3)cc21 (stereo in doubt)", "BRM Max % Inhibition": ">95%"}
{"COMPOUND": "COC[C@H](NC(=O)c1ccnc(C(C)(C)C)c1)C(=O)Nc1nc(-c2cccc(N3C[C@@H](C)O[C@@H](C)C3)c2)cs1", "BRM Max % Inhibition": ">90%"}

Turning now to a further record.
Ask | Tell me the measured BRM Max % Inhibition of C[C@@H]1CN(c2cccc(-c3csc(NC(=O)[C@H](C)NC(=O)c4ccnc(C(C)(C)C)c4)n3)c2)C[C@H](C)O1 , please.
Reply | >95%

* * *

Target: BRM (Homo sapiens, UniProt P51531)
Sequence (P51531 whole entry): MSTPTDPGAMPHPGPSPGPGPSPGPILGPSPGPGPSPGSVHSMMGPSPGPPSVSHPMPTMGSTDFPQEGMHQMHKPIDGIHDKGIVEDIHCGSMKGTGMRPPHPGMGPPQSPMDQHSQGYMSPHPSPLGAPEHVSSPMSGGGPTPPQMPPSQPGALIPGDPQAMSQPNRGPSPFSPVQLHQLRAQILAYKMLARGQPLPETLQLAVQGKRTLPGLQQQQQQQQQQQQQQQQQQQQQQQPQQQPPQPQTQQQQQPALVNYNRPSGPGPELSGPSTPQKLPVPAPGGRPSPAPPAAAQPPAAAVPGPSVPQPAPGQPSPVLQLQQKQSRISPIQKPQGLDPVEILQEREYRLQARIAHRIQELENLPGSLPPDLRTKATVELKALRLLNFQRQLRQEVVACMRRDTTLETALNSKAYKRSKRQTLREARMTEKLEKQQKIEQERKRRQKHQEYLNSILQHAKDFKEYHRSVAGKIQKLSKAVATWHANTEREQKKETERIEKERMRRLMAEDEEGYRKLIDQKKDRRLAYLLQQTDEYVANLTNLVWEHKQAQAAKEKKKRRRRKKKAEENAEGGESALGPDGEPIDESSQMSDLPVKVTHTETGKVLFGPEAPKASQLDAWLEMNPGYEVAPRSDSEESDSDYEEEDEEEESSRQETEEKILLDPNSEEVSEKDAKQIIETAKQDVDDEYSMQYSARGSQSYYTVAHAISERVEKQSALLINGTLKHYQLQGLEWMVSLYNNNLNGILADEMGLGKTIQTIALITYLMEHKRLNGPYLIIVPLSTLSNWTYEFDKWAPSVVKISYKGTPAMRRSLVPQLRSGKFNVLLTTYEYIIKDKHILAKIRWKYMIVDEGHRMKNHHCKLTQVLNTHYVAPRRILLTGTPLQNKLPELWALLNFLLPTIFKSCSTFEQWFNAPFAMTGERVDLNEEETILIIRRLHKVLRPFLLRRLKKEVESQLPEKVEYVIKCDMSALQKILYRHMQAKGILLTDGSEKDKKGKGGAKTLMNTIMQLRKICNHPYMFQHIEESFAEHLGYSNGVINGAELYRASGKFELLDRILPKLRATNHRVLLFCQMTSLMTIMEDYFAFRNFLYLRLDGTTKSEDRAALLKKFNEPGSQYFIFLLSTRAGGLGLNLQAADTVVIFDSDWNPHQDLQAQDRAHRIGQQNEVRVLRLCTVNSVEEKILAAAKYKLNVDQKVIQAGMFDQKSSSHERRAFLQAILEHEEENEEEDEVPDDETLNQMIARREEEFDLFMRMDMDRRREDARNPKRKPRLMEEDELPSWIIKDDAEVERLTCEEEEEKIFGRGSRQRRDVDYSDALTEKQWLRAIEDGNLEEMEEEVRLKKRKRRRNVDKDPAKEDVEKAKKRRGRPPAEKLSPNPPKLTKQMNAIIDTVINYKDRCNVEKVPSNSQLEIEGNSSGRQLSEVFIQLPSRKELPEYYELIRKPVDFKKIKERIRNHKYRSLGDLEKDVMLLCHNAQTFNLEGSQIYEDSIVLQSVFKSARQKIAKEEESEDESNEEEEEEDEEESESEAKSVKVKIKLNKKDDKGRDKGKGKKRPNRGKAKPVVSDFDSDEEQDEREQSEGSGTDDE
Test: ATPase catalytic activity assay of BRM (ADP-Glo)
Format: biochemical
Conditions: read-out: BRM IC50 (μM)*
READOUT TYPE: IC50

Some entries whose results are on file:
{"COMPOUND": "C[C@@]1(C#N)COCc2ccc(C(=O)NCC(=O)Nc3nc(-c4cccc(N5CCC56COC6)c4)cs3)cc21", "READOUT TYPE": "IC50", "RESULT": "< 0.1 µM"}
{"COMPOUND": "C[C@@H]1CN(c2cccc(-c3csc(NC(=O)CNC(=O)c4cccc([C@]5(F)C[C@@H](O)C5)c4)n3)c2)C[C@H](C)O1", "READOUT TYPE": "IC50", "RESULT": "< 0.1 µM"}
{"COMPOUND": "Cc1cc(C(=O)NCC(=O)Nc2nc(-c3cccc(-c4ccncc4)c3)cs2)cc(S(=O)(=O)C(C)C)c1C", "READOUT TYPE": "IC50", "RESULT": "0.1 to 1 µM"}
{"COMPOUND": "C[C@@]1(C#N)COCc2ccc(C(=O)NCC(=O)Nc3nc(-c4cccc(C5CCO5)c4)cs3)cc21 (stereo partly shown) [Compound 371]", "READOUT TYPE": "IC50", "RESULT": "< 0.1 µM"}

Quick batch: IC50 for everything below.
1. COc1cccc(-c2csc(NC(=O)CNC(=O)c3ccc4c(c3)C(C)(C#N)CNC4)n2)c1 (stereo not shown)
2. C[C@@H]1CN(c2cccc(-c3csc(NC(=O)CNC(=O)c4ccc5c(c4)[C@@H](CO)CC5)n3)n2)C[C@H](C)O1
3. Cn1ncc(-c2cccc(-c3csc(NC(=O)CNC(=O)c4ccc5c(c4)C(C)(CO)CC5)n3)n2)n1 (stereo not shown)
4. CC(C)(CN)c1cccc(C(=O)NCC(=O)Nc2nc(-c3cccc(-c4cc(CO)cc(C(F)(F)F)c4)c3)cs2)c1

Reply |
0.1 to 1 µM
< 0.1 µM
0.1 to 1 µM
0.1 to 1 µM

Quick batch: IC50 for everything below.
1. C[C@@H]1CN(c2cccc(-c3csc(NC(=O)CNC(=O)c4ccc5c(c4)[C@@]4(CCC[C@@H]4O)CC5)n3)c2)C[C@H](C)O1
2. C[C@@H]1CN(c2cccc(-c3csc(NC(=O)CNC(=O)c4cccc([C@]5(C)C[C@H](O)C5)c4)n3)c2)C[C@H](C)O1
3. C[C@@H]1CN(c2cccc(-c3csc(NC(=O)CNC(=O)c4ccc5c(c4)C4(COC5)COC4)n3)n2)C[C@H](C)O1
4. C[C@@H]1CN(c2cccc(-c3csc(NC(=O)CNC(=O)c4cc(C(C)(C)CO)ccc4F)n3)n2)C[C@H](C)O1

Reply |
< 0.1 µM
0.1 to 1 µM
< 0.1 µM
0.1 to 1 µM

Ask | Tell me the measured IC50 of C[C@@H]1CN(c2cccc(-c3csc(NC(=O)CNC(=O)c4cccc([C@@]5(C(F)F)CCOC5)c4)n3)c2)C[C@H](C)O1 , please.
Reply | < 0.1 µM
